src = ChEMBL document CHEMBL6092213

# ASSAY_METHOD_TEXT: Metabolic stability in mouse hepatocytes assessed as intrinsic clearance at 0.5 uM measured upto 120 mins in presence of NADPH by UPLC-MS/MS analysis
# Assay type: ADME, cell-based, Hepatocyte
# ASSAY_CONTEXT: 2 h
Listed compounds paired with reported CLH
State just the number; it will be interpreted in mL/min/g.

Example results:
INSERT INTO assay_data (chemical_structure, endpoint_label, number) VALUES
  ('COc1ccc(-c2nc(N)nc(N)c2OCCCOc2ccccc2CCC(=O)O)cc1', 'CLH', 0.59),
  ('Nc1nc(N)c(OCCCOc2ccccc2CCC(=O)O)c(-c2ccccc2)n1', 'CLH', 2.2);

Let's switch to this compound now.
What value of measured CLH is listed for `Nc1nc(N)c(OCCCOc2ccccc2CCC(=O)O)c(C2CCCCC2)n1` ?
2.2
